The following molecules are shown together with reported Kd values.
Biological target: CeTb, colchicine site (Gallus gallus, UniProt P09207)
Test: Single-point MDL competitive binding inhibition screen, erythrocyte tubulin
Design: species or system chicken (Gallus gallus)
Conditions: from single-point data (50 µM drug) fitted with single-site isotherm, Eq. 4; read-out: CeTb Kd(app)
Reply with the number and its unit after it.

Worked examples, 4 molecules total:
Problem: State the recorded Kd for this entry: CCOC(=O)Nc1ccc(SC[C@@H]2CO[C@@](Cn3ccnc3)(c3ccc(Cl)cc3Cl)O2)cc1 [Tubulazole C]
Result: 153 µM

Problem: State the recorded Kd for this entry: `COC(=O)Nc1nc2ccc(C(=O)c3ccccc3)cc2[nH]1`
Result: 1.8 µM

Problem: State the recorded Kd for this entry: `CCCCNC(=O)n1c(NC(=O)OC)nc2ccccc21`
Result: 20 µM

Problem: State the recorded Kd for this entry: `COC(=O)Nc1nc2cc(C(=O)c3ccc(F)cc3)ccc2[nH]1`
Result: 10 µM

***
Problem: State the recorded Kd for this entry: `COC(=O)Nc1nc2ccccc2[nH]1`
Result: 12 µM

---

Biological target: BTb, colchicine site (Bos taurus, UniProt Q6B856)
Construct: from tissue; host or cells: mammalian brain: either rat brain (purified in house) or bovine brain (bought from Cytoskeleton #HTS02-A or Sigma-Aldrich #T4925)
Experiment: Single-point MDL competitive binding inhibition screen, brain tubulin
Parameters: species or system bovine or rat
Details: from single-point data (50 µM drug) fitted with single-site isotherm, Eq. 4; read-out: BTb Kd(app)
Quick rule for you: Kd under 8 µM gets 1 (yes), anything else gets 0 (no).

Problem: Dear reviewer, please state whether `COc1cc2c(c(N)c1OC)C(=O)/C(=C\c1cc(C)c(O)c(C)c1)C2` has Kd strictly beneath 8 µM.
Result: 1 (yes)

***
Problem: Dear reviewer, please state whether `COC(=O)Nc1nc2cc(C(=O)c3ccc(F)cc3)ccc2[nH]1` has Kd strictly beneath 8 µM.
Result: 1 (yes)

Problem: Dear reviewer, please state whether `COC(=O)Nc1nc2ccc(Sc3ccccc3)cc2[nH]1` has Kd strictly beneath 8 µM.
Result: 0 (no)

Problem: Dear reviewer, please state whether COc1cc2c(c(OC)c1OC)-c1ccc(O)c(=O)cc1C(N)CC2 (stereo not drawn) has Kd strictly beneath 8 µM.
Result: 0 (no)

Problem: Dear reviewer, please state whether `CCCCNC(=O)n1c(NC(=O)OC)nc2ccccc21` has Kd strictly beneath 8 µM.
Result: 0 (no)

---

Target: BTb, colchicine site (Bos taurus, UniProt Q6B856)
Construct: from tissue; host or cells: mammalian brain: either rat brain (purified in house) or bovine brain (bought from Cytoskeleton #HTS02-A or Sigma-Aldrich #T4925)
Experiment: Single-point MDL competitive binding inhibition screen, brain tubulin
Set-up: species or system bovine or rat
Conditions: 50 µM drug, 1 µM tubulin, 5 µM MDL, single point; read-out: BTb % (inhibition of MDL binding)
ENDPOINT_NAME: inhibition at 50 µM (%)
Entry rule: numbers only, all in %.

Problem: State the recorded inhibition at 50 µM for this entry: `COc1ccc(S(=O)(=O)Nc2cccnc2Nc2ccc(O)cc2)cc1`
Result: 44

Problem: State the recorded inhibition at 50 µM for this entry: `COC(=O)Nc1nc2ccc(Sc3ccccc3)cc2[nH]1`
Result: 12

***
Problem: State the recorded inhibition at 50 µM for this entry: `COc1cc2c(c(N)c1OC)C(=O)/C(=C\c1cc(C)c(O)c(C)c1)C2`
Result: 57
